# target.system: Aurora kinase B (Homo sapiens, UniProt Q96GD4)
# Sequence (Q96GD4 whole entry): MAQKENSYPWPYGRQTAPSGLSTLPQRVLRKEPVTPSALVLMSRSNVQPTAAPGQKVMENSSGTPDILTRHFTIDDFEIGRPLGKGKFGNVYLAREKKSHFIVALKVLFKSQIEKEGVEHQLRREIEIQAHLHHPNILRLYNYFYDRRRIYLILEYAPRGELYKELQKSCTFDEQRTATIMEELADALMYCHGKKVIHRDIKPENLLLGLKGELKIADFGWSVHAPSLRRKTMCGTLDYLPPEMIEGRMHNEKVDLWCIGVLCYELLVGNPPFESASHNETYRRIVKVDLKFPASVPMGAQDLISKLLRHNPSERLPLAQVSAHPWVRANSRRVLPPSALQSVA
pIC50: −log10 of the molar value.

- input.smiles: "C=CC(=O)N1CCC[C@H]1C(=O)Nc1cc2c(Nc3cccc(Cl)c3F)ncnc2cc1OCCOC"
  pIC50: "< 5.00"

###

// reported Cmax per item
# method: Cmax in Sprague-Dawley rat at 10 mg/kg, po
# Assay type: ADME, organism-based
# Design: dose 10 mg/kg, route oral
# condition.description: in vivo
measured.metric: Cmax

- input.smiles: "C=CC(=O)N1CCC[C@H]1C(=O)Nc1cc2c(Nc3ccc(F)c(Cl)c3F)ncnc2cc1OCCOC"
  result: "147 ng/mL"
- input.smiles: "C=CC(=O)N1CCC[C@H]1C(=O)Nc1cc2c(Nc3cccc(Cl)c3F)ncnc2cc1OCCOC"
  result: "1750 ng/mL"

###

# target.system: Insulin-like growth factor 1 receptor (Homo sapiens, UniProt P08069)

- input.smiles: "C=CC(=O)N1CCC[C@H]1C(=O)Nc1cc2c(Nc3ccc(F)c(Cl)c3F)ncnc2cc1OCCOC"
  IC50: "> 10 µM"

###

# target.system: Tyrosine-protein kinase ABL1 (Homo sapiens, UniProt P00519)
# Sequence (P00519 whole entry): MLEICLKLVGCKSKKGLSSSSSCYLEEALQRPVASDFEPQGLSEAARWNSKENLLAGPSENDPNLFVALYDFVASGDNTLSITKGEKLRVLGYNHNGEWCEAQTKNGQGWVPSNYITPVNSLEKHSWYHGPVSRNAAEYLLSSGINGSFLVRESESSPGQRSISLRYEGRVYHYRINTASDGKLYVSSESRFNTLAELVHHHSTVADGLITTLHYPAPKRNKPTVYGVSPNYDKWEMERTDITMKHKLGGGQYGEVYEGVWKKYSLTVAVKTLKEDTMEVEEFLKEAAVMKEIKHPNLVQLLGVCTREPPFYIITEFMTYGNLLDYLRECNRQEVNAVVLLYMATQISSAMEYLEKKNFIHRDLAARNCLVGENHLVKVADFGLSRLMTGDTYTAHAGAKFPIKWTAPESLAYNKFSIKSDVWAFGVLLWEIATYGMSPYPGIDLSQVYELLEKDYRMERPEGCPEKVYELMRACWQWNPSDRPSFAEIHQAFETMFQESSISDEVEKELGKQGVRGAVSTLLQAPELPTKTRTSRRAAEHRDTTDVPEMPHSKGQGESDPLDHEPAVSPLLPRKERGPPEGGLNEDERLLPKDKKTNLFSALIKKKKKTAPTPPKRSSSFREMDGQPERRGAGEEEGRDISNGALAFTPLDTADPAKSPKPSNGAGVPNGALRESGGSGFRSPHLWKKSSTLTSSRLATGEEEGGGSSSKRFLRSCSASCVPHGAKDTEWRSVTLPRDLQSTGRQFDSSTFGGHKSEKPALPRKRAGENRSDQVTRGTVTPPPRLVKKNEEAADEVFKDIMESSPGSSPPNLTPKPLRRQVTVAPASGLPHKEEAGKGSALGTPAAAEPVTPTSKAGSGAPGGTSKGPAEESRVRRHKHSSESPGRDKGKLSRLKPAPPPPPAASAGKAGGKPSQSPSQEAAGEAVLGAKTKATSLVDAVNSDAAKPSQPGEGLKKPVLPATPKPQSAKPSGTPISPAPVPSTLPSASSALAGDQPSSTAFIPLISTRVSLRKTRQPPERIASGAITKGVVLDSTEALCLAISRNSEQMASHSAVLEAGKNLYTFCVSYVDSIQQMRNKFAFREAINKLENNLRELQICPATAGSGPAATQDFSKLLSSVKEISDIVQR
pIC50: −log10 of the molar value.

- input.smiles: "C=CC(=O)N1CCC[C@H]1C(=O)Nc1cc2c(Nc3cccc(Cl)c3F)ncnc2cc1OCCOC"
  value.operator: "="
  pIC50: 6.30
- input.smiles: "C=CC(=O)N1CCC[C@H]1C(=O)Nc1cc2c(Nc3ccc(F)c(Cl)c3F)ncnc2cc1OCCOC"
  value.operator: ">"
  pIC50: 7.00

###

# target.system: Vascular endothelial growth factor receptor 2 (Homo sapiens)
# Sequence (P35968 whole entry): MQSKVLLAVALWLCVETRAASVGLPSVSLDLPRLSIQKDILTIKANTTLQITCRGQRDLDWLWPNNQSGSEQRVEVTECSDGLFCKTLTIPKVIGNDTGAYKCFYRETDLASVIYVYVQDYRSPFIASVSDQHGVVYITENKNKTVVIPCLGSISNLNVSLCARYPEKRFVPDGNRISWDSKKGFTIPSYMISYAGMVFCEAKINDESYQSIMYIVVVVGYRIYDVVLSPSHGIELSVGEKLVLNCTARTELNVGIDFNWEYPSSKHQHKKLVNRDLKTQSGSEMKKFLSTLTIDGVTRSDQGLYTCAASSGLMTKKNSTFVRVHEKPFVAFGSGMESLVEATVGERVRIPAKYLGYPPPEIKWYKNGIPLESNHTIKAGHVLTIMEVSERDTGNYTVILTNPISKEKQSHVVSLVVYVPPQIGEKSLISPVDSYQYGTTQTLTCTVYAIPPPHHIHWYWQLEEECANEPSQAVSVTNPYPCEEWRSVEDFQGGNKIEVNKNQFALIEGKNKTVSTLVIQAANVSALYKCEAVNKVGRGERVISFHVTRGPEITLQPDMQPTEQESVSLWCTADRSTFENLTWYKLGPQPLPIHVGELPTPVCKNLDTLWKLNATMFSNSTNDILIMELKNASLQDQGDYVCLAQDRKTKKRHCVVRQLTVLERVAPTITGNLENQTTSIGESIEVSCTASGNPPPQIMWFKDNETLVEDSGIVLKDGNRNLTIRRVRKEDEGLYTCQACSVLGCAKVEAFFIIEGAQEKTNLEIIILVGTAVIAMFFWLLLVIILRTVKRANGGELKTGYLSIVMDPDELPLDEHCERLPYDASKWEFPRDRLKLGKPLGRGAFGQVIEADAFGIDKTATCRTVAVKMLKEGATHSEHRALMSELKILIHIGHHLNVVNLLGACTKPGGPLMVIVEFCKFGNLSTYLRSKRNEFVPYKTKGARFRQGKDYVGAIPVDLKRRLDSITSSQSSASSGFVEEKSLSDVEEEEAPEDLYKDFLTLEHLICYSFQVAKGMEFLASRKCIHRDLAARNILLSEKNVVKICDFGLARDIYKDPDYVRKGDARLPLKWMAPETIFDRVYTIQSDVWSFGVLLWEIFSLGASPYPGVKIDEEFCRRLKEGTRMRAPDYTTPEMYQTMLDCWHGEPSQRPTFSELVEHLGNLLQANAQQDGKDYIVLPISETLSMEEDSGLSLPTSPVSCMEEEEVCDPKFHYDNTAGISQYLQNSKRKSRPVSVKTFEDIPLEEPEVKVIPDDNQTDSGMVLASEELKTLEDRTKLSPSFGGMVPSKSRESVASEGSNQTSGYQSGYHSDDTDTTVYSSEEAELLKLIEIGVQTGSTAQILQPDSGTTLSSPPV
Some molecules, each annotated with its measured IC50.

- input.smiles: "C=CC(=O)N1CCC[C@H]1C(=O)Nc1cc2c(Nc3cccc(Cl)c3F)ncnc2cc1OCCOC"
  target.system: "Vascular endothelial growth factor receptor 2 (Homo sapiens)"
  IC50 [nM]: 1300
- input.smiles: "C=CC(=O)N1CCC[C@H]1C(=O)Nc1cc2c(Nc3ccc(F)c(Cl)c3F)ncnc2cc1OCCOC"
  target.system: "Vascular endothelial growth factor receptor 2 (Homo sapiens)"
  IC50 [nM]: 600

###

Reported IC50, Receptor tyrosine-protein kinase erbB-2 (Homo sapiens, UniProt P04626).
measured.metric: IC50 (nM)

- input.smiles: "C=CC(=O)N1CCC[C@H]1C(=O)Nc1cc2c(Nc3cccc(Cl)c3F)ncnc2cc1OCCOC"
  measure.unit: "nM"
  number: 42
- input.smiles: "C=CC(=O)N1CCC[C@H]1C(=O)Nc1cc2c(Nc3ccc(F)c(Cl)c3F)ncnc2cc1OCCOC"
  measure.unit: "nM"
  number: 18

###

# target.system: Cyclin-dependent kinase 2 (Homo sapiens, UniProt P24941)
pIC50: −log10 of the molar value.

- input.smiles: "C=CC(=O)N1CCC[C@H]1C(=O)Nc1cc2c(Nc3ccc(F)c(Cl)c3F)ncnc2cc1OCCOC"
  pIC50: "< 5.00"

###

# method: Oral bioavailability in Sprague-Dawley rat at 10 mg/kg
# Type: ADME, organism-based
# condition.description: in vivo
The entries below are paired with their reported bioavailability.

- input.smiles: "C=CC(=O)N1CCC[C@H]1C(=O)Nc1cc2c(Nc3ccc(F)c(Cl)c3F)ncnc2cc1OCCOC"
  bioavailability, %: 24.8
- input.smiles: "C=CC(=O)N1CCC[C@H]1C(=O)Nc1cc2c(Nc3cccc(Cl)c3F)ncnc2cc1OCCOC"
  bioavailability, %: 76.5

###

Data export: pIC50 values recorded with Proto-oncogene tyrosine-protein kinase Src (Homo sapiens).
Sequence (P12931 2-536 limits assumed): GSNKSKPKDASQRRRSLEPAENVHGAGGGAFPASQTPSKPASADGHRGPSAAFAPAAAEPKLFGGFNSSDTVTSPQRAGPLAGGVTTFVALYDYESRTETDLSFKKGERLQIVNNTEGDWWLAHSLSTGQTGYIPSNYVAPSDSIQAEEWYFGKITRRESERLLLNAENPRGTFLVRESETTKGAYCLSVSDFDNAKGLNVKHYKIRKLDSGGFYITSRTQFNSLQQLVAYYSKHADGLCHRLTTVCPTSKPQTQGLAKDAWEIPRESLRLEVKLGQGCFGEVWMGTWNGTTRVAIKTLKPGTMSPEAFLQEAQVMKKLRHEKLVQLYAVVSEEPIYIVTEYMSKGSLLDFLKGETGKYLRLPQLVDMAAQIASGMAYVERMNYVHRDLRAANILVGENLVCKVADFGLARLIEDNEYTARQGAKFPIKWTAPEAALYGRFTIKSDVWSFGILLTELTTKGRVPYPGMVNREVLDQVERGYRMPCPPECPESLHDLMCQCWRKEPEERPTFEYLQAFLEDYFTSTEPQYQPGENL
pIC50: −log10 of the molar value.
measured.metric: pIC50

- input.smiles: "C=CC(=O)N1CCC[C@H]1C(=O)Nc1cc2c(Nc3ccc(F)c(Cl)c3F)ncnc2cc1OCCOC"
  target.system: "Proto-oncogene tyrosine-protein kinase Src (Homo sapiens)"
  value.operator: ">"
  number: 7.00
- input.smiles: "C=CC(=O)N1CCC[C@H]1C(=O)Nc1cc2c(Nc3cccc(Cl)c3F)ncnc2cc1OCCOC"
  target.system: "Proto-oncogene tyrosine-protein kinase Src (Homo sapiens)"
  value.operator: "="
  number: 6.10

###

# Tested on: NCI-H1975
# method: cells
# condition.description: Homo sapiens, NCI-H1975, 24 h
pIC50: −log10 of the molar value.
measured.metric: pIC50

- molecule: "CS(=O)(=O)CCNCc1ccc(-c2ccc3ncnc(Nc4ccc(OCc5cccc(F)c5)c(Cl)c4)c3c2)o1 [LAPATINIB]"
  result: "< 6.00"

###

# Tested on: A-431
# method: cells
# condition.description: Homo sapiens, A-431, 72 h
pIC50: −log10 of the molar value.
measured.metric: pIC50

- input.smiles: "C=CC(=O)N1CCC[C@H]1C(=O)Nc1cc2c(Nc3ccc(OCc4ccccn4)c(Cl)c3)ncnc2cc1OCCOC"
  number: 7.64
- input.smiles: "C=CC(=O)N1CCC[C@H]1C(=O)Nc1cc2c(Nc3ccc(OCc4ccccn4)c(Cl)c3)ncnc2cc1OC"
  number: 7.57
- input.smiles: "C=CC(=O)N1CCC[C@H]1C(=O)Nc1cc2c(Nc3cccc(Cl)c3F)ncnc2cc1OC"
  number: 7.15
- input.smiles: "C=CC(=O)N1CCC[C@H]1C(=O)Nc1cc2c(Nc3ccc(Br)c(Cl)c3F)ncnc2cc1OCCOC"
  number: 8.22
- input.smiles: "C=CC(=O)N1CCC[C@H]1C(=O)Nc1cc2c(Nc3ccc(F)c(Cl)c3)ncnc2cc1OC"
  number: 7.96
- input.smiles: "C=CC(=O)N1CCC[C@H]1C(=O)Nc1cc2c(Nc3ccc(Cl)c(Cl)c3F)ncnc2cc1OCCOC"
  number: 7.74
- input.smiles: "C=CC(=O)N1CCC[C@H]1C(=O)Nc1cc2c(Nc3ccc(Br)c(Cl)c3F)ncnc2cc1OC"
  number: 7.42
- input.smiles: "C=CC(=O)N1CCC[C@H]1C(=O)Nc1cc2c(Nc3ccc(F)c(Cl)c3)ncnc2cc1OCCOC"
  number: 7.96

###

# method: Half life in Sprague-Dawley rat at 10 mg/kg, po
# Type: ADME, organism-based
# Design: dose 10 mg/kg, route oral
# condition.description: in vivo
measured.metric: half-life (h)

- input.smiles: "C=CC(=O)N1CCC[C@H]1C(=O)Nc1cc2c(Nc3ccc(F)c(Cl)c3F)ncnc2cc1OCCOC"
  number: 4.2
- input.smiles: "C=CC(=O)N1CCC[C@H]1C(=O)Nc1cc2c(Nc3cccc(Cl)c3F)ncnc2cc1OCCOC"
  number: 3.2

###

# target.system: Angiopoietin-1 receptor (Homo sapiens, UniProt Q02763)
# Sequence (Q02763 whole entry): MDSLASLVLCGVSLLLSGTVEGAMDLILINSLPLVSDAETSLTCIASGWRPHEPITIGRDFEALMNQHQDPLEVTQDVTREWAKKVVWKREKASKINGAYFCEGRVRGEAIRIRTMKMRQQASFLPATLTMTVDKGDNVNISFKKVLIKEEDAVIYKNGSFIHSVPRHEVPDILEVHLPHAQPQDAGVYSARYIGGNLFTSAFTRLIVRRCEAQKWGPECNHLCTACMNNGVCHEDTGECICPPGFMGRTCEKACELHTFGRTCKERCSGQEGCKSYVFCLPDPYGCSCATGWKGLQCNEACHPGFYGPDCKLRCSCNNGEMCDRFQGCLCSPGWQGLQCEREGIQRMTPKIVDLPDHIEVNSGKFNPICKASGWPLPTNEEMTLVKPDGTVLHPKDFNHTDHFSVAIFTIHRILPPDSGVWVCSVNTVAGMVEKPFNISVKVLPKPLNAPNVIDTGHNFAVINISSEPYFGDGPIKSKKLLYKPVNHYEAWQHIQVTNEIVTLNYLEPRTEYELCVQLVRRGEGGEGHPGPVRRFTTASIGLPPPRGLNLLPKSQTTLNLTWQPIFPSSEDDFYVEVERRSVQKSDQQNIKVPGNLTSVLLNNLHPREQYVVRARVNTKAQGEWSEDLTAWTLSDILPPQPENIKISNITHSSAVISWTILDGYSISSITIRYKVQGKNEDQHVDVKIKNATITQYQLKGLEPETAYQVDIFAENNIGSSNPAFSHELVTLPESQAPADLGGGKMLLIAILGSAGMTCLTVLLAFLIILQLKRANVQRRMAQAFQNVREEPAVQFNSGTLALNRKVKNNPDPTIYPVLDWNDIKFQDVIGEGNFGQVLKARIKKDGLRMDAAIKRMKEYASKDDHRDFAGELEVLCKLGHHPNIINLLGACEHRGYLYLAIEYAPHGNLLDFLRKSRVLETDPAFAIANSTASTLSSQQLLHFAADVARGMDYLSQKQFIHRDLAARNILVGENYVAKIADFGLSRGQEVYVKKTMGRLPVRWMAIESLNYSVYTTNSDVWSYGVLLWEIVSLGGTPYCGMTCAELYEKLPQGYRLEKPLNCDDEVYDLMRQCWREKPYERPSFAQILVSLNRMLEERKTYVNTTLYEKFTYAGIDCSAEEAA
# method: Inhibition of Tek
measured.metric: IC50 (µM)

- input.smiles: "C=CC(=O)N1CCC[C@H]1C(=O)Nc1cc2c(Nc3ccc(F)c(Cl)c3F)ncnc2cc1OCCOC"
  number: 2.2
- input.smiles: "C=CC(=O)N1CCC[C@H]1C(=O)Nc1cc2c(Nc3cccc(Cl)c3F)ncnc2cc1OCCOC"
  number: 5

###

# target.system: Mitogen-activated protein kinase 1 (Homo sapiens, UniProt P28482)
# Sequence (P28482 whole entry): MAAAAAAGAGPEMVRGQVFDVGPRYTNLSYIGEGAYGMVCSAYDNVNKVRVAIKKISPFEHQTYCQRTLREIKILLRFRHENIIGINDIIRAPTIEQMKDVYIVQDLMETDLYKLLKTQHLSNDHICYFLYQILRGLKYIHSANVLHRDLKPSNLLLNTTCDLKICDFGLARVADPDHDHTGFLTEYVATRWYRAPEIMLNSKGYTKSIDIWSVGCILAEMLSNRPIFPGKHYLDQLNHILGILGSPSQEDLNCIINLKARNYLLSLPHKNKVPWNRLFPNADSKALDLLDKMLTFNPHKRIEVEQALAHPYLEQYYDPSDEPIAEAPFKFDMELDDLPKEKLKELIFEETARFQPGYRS
# method: Inhibition of MAPK1
IC50: recorded values
measured.metric: IC50

- input.smiles: "C=CC(=O)N1CCC[C@H]1C(=O)Nc1cc2c(Nc3ccc(F)c(Cl)c3F)ncnc2cc1OCCOC"
  result: "> 10 µM"
- input.smiles: "C=CC(=O)N1CCC[C@H]1C(=O)Nc1cc2c(Nc3cccc(Cl)c3F)ncnc2cc1OCCOC"
  result: "> 10 µM"
